Where do these numbers come from? They come from ChEMBL document CHEMBL2177014.

# assayNotes: Displacement of [3H]MK-801 from NMDAR in Sprague-Dawley rat cerebral cortex homogenates after 2 hrs by liquid scintillation counting
# Format: tissue-based
Overview of reported Ki across a group of molecules:

[
  {
    "molecule": "COc1ccc2c3c1O[C@H]1C[C@@H](O)C=C[C@@]31CCN(CCCCCCCCCNC13CC4CC(C)(CC(C)(C4)C1)C3)C2",
    "Ki": "4.63 µM"
  },
  {
    "molecule": "CC(C(O)c1ccc(O)cc1)N1CCC(Cc2ccccc2)CC1 (centres undefined) [IFENPRODIL]",
    "Ki": "3.08 µM"
  },
  {
    "molecule": "COc1ccc2c3c1O[C@H]1C[C@@H](O)C=C[C@@]31CCN(CCCCCCCNC13CC4CC(C)(CC(C)(C4)C1)C3)C2",
    "Ki": "10 µM"
  },
  {
    "molecule": "COc1ccc2c3c1O[C@H]1C[C@@H](O)C=C[C@@]31CCN(CCCCNC13CC4CC(C)(CC(C)(C4)C1)C3)C2",
    "Ki": "2.32 µM"
  }
]

----------
# assayNotes: Binding affinity to NMDAR in Sprague-Dawley rat cerebral cortex homogenates
# Type: tissue-based
pKd: −log10 of the molar value. Structures can show the parent of a compound that is named as a salt.

[
  {
    "compound": "C[C@]12N[C@H](Cc3ccccc31)c1ccccc12 [DIZOCILPINE MALEATE]",
    "pKd": 8.40
  }
]

----------
# targetOfAssay: Acetylcholinesterase (Rattus norvegicus)
# Sequence (P37136 whole entry): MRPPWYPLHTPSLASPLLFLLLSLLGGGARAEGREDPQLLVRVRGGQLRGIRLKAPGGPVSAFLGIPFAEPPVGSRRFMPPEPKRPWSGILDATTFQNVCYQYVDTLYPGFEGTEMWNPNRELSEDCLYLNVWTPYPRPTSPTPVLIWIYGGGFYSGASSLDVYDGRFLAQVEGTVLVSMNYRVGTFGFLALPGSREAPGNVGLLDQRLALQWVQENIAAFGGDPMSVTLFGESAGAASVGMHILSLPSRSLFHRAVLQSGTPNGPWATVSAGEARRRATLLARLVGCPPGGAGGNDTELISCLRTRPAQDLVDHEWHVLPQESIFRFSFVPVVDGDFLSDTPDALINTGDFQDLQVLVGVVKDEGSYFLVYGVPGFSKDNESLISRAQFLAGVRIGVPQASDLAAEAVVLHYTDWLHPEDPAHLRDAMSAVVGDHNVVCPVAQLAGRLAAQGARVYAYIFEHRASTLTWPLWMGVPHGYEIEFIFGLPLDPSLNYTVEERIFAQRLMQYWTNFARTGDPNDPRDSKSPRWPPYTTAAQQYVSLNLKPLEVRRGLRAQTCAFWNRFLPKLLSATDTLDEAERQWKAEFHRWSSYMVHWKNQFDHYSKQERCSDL
propertyLabel: log10 of IC50 (log10 of the value in nM)

[
  {
    "compoundStructure": "COc1ccc2c3c1O[C@H]1C[C@@H](O)C=C[C@@]31CCN(CCCCC(=O)NC13CC4CC(C)(CC(C)(C4)C1)C3)C2",
    "targetOfAssay": "Acetylcholinesterase (Rattus norvegicus)",
    "log10 of IC50": 2.57
  },
  {
    "compoundStructure": "COc1ccc2c3c1O[C@H]1C[C@@H](O)C=C[C@@]31CCN(CCCNCCCNC13CC4CC(C)(CC(C)(C4)C1)C3)C2",
    "targetOfAssay": "Acetylcholinesterase (Rattus norvegicus)",
    "log10 of IC50": 2.23
  },
  {
    "compoundStructure": "COc1ccc2c3c1O[C@H]1C[C@@H](O)C=C[C@@]31CCN(CCCCCCCCNC13CC4CC(C)(CC(C)(C4)C1)C3)C2",
    "targetOfAssay": "Acetylcholinesterase (Rattus norvegicus)",
    "log10 of IC50": 0.73
  },
  {
    "compoundStructure": "COc1ccc2c3c1O[C@H]1C[C@@H](O)C=C[C@@]31CCN(CCCCCCCNC13CC4CC(C)(CC(C)(C4)C1)C3)C2",
    "targetOfAssay": "Acetylcholinesterase (Rattus norvegicus)",
    "log10 of IC50": 0.25
  },
  {
    "compoundStructure": "COc1ccc2c3c1O[C@H]1C[C@@H](O)C=C[C@@]31CCN(CCCCCNC13CC4CC(C)(CC(C)(C4)C1)C3)C2",
    "targetOfAssay": "Acetylcholinesterase (Rattus norvegicus)",
    "log10 of IC50": 0.63
  },
  {
    "compoundStructure": "COc1ccc2c3c1O[C@H]1C[C@@H](O)C=C[C@@]31CCN(CCCCCCN(C)C13CC4CC(C)(CC(C)(C4)C1)C3)C2",
    "targetOfAssay": "Acetylcholinesterase (Rattus norvegicus)",
    "log10 of IC50": 0.01
  },
  {
    "compoundStructure": "COc1ccc2c3c1O[C@H]1C[C@@H](O)C=C[C@@]31CCN(CCCCCC(=O)NC13CC4CC(C)(CC(C)(C4)C1)C3)C2",
    "targetOfAssay": "Acetylcholinesterase (Rattus norvegicus)",
    "log10 of IC50": 1.05
  },
  {
    "compoundStructure": "COc1ccc2c3c1O[C@H]1C[C@@H](O)C=C[C@@]31CCN(CCCC(=O)NC13CC4CC(C)(CC(C)(C4)C1)C3)C2",
    "targetOfAssay": "Acetylcholinesterase (Rattus norvegicus)",
    "log10 of IC50": 1.75
  },
  {
    "compoundStructure": "COc1ccc2c3c1O[C@H]1C[C@@H](O)C=C[C@@]31CCN(CCCCNC13CC4CC(C)(CC(C)(C4)C1)C3)C2",
    "targetOfAssay": "Acetylcholinesterase (Rattus norvegicus)",
    "log10 of IC50": 2.84
  }
]
